The reported measurements were obtained from ChEMBL document CHEMBL1921760.

Test: Clearance in BALB/c mouse plasma at 50 mg/kg, iv after 24 hrs by LC-MS analysis
Format: ADME, organism-based
Set-up: dose 50 mg/kg, route intravenous
Here, each record is paired with measured clearance data.

Compound | clearance [mL/min]
CC[C@H](Nc1nc(NCc2cccnc2)c2ncn(C(C)C)c2n1)[C@@H](C)O | 0.15
CC[C@@H](Nc1nc(NCc2cccnc2)c2ncn(C(C)C)c2n1)[C@H](C)O | 0.283
CC[C@@H](Nc1nc(NCc2cccnc2)c2ncn(C(C)C)c2n1)C(C)(C)O | 0.2
CC[C@H](CO)Nc1nc(NCc2ccccc2)c2ncn(C(C)C)c2n1 [SELICICLIB] | 0.85
CC[C@H](Nc1nc(NCc2cccnc2)c2ncn(C(C)C)c2n1)C(C)(C)O | 0.4
